# system: T1, human IL-2 receptor βγc heterodimer (hIL-2Rβγc), soluble (human, UniProt P14784 27-240; P31785 23-254, biotin on the C-terminal biotin acceptor peptide)
# T1 construct: also called HsIL-2Rβγc; hIL-2Rβνc
# T1 sequence 1: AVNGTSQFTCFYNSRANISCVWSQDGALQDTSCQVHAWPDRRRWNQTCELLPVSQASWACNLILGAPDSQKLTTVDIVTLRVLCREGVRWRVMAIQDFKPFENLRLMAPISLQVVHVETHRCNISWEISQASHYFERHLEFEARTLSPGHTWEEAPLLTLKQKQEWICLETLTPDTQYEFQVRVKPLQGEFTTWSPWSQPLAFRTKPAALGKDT
# T1 sequence 2: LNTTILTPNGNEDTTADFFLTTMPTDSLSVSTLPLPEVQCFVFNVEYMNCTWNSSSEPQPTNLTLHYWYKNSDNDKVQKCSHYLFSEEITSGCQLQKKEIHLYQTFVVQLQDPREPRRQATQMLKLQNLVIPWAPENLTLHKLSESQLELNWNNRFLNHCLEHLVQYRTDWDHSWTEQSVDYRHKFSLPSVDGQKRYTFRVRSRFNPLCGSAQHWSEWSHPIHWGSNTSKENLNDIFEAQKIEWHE
# procedure_summary: affinity maturation by yeast display for human and mouse IL-2Rβνc
property_label: binding result

G2_neo2_40_1F_seq29_S7 (designed binder) EDYYSNLKVILEELAREMERNGLSDKAEEWRQWKKIVERIRQIRSNNSDLNEAKELLNELITYIQSQIFEVIEREGETDQEKKEESWKKWELHLEHALLDVLMLLND; binds
G2_neo2_40_1F_seq27_S18 (designed binder) TNKEAQLHAEFALYDALMLLNLSSESNERLNRIITWLQSIIFYETYDPDMVKEAVKLADEIEDEMRKRKIDTEDYVVNLRLILQELA; binds
G2_neo2_40_1F_seq27_S22 (designed binder) TKKDAELLAEFALYDALMLLNLSSESNERLNEIITWLQSIIFYGTYDPDMVKEAVKLADEIEDEMRKRGIDTEDYVSNLRLILQELA; binds
